The following compounds are shown together with reported TCF/Wnt firefly luciferase reporter signal values.
- Tested on: HCT116
- Procedure Text: TCF/Wnt firefly luciferase reporter signal relative to plate median (fraction of plate median); higher = higher Wnt reporter signal
- Measurement Context: 10 µM; treatment time 24 h; reporter: TCF4/Wnt
Just the number, please, no unit attached.

compound=CC(C)(C)c1cc(C=C(C#N)C#N)cc(Br)c1O target_desc=HCT116 observed_result=1.38
compound="COC[C@H]1OC(=O)c2coc3c2[C@@]1(C)C1=C(C3=O)[C@@H]2CCC(=O)[C@@]2(C)C[C@H]1OC(C)=O [Wortmannin]" target_desc=HCT116 observed_result=0.699
compound=O=c1[nH]c2ccc(Cl)cc2c(N[C@@H]2CN3CCC2CC3)c1-c1nc2ccccc2[nH]1 target_desc=HCT116 observed_result=0.439

Field: next compound
Query: TCF/Wnt firefly luciferase reporter signal; subject: CN[C@@H]1C[C@H]2O[C@@](C)([C@@H]1OC)n1c3ccccc3c3c4c(c5c6ccccc6n2c5c31)C(=O)NC4 [Staurosporine]
0.103

###

- Tested on: HCT116
- Procedure Text: cell viability (CellTiter-Glo) relative to plate median (fraction of plate median); higher = more viable cells
- Measurement Context: 5 µM; treatment time 24 h; reporter: TCF4/Wnt
Measured cell viability values are reported for all entries that follow.
Give only the figure.

Worked examples follow.
compound="CC1NC(=O)C(NC(=O)c2cnc3ccccc3n2)COC(=O)C(C(C)C)N(C)C(=O)C2CSSCC(C(=O)N(C)C(C(C)C)C(=O)OCC(NC(=O)c3cnc4ccccc4n3)C(=O)NC(C)C(=O)N2C)N(C)C1=O (stereo not drawn)" observed_result=0.984
compound=COc1cc2c(cc1OC)[C@@]13CCN4CC5=CCO[C@H]6CC(=O)N2[C@H]1[C@H]6[C@H]5C[C@H]43 observed_result=1
compound=NC(N)=NOCC[C@H](N)C(=O)O observed_result=1.03
compound=CCCCCCCCCCCCCCCC[n+]1ccccc1 observed_result=0.797

Missing value: cell viability, HCT116, entry C/C=C\C(=O)O[C@@H]1C[C@H]2O[C@@H]3C=C(C)C(=O)C[C@]3(C)[C@]1(C)[C@]21CO1 . Fill in?
0.807

Return cell viability measured with HCT116 given this compound: CC(C)=CCC[C@]1(C)C=Cc2c(O)c3c(c(CC=C(C)C)c2O1)O[C@]12C(=C[C@@H]4C[C@H]1C(C)(C)O[C@@]2(C/C=C(/C)C(N)=O)C4=O)C3=O
0.933

// fetch HCT116 cell viability for Oc1cc(Cl)ccc1Oc1ccc(Cl)cc1Cl
0.913

API: value(readout= cell viability, system= HCT116, query= c1ccc(/N=N/c2ccccc2)cc1 )
0.981

###

- Test system: SW480
- Procedure Text: TCF/Wnt firefly luciferase reporter signal relative to plate median (fraction of plate median); higher = higher Wnt reporter signal
- Measurement Context: 5 µM; treatment time 24 h; reporter: 7TFP
Endpoint: TCF/Wnt firefly luciferase reporter signal
The reply should be a number, written without any unit.

molecule=NCCc1cc(O)c(O)cc1O observed_result=1.24
molecule=CC1(C)C(=O)C=C[C@]2(C)[C@H]3CC[C@@]4(C)[C@H](c5ccoc5)OC(=O)[C@H]5O[C@]54[C@]3(C)[C@H](O)C[C@@H]12 observed_result=0.972
molecule=O=c1ccc2c(O)c3ccoc3cc2o1 observed_result=0.886
molecule="CC(C)N(CCC(C(N)=O)(c1ccccc1)c1ccccn1)C(C)C (stereo not given)" observed_result=1.13
molecule=CCCCCCCCCc1ccc(O)cc1 observed_result=1.17

Continue with the molecule presented below.
I'd like to know its TCF/Wnt firefly luciferase reporter signal. The molecule in question is CN[C@@H]1[C@@H](O)[C@@H](O[C@@H]2[C@@H](O)[C@H](O[C@H]3O[C@H](CN)CC[C@H]3N)[C@@H](N)C[C@H]2N)OC[C@]1(C)O.CN[C@@H]1[C@@H](O)[C@@H](O[C@@H]2[C@@H](O)[C@H](O[C@H]3O[C@H]([C@@H](C)N)CC[C@H]3N)[C@@H](N)C[C@H]2N)OC[C@]1(C)O.CN[C@@H]1[C@@H](O)[C@@H](O[C@@H]2[C@@H](O)[C@H](O[C@H]3O[C@H]([C@@H](C)NC)CC[C@H]3N)[C@@H](N)C[C@H]2N)OC[C@]1(C)O
1.04

Sourced from the supplement of paper PMC6522484
